Biological target: β-tryptase (recombinant tryptase β-2) (Homo sapiens)
Construct: purchased EnzoLife Sciences
Sequence (P20231 31-275): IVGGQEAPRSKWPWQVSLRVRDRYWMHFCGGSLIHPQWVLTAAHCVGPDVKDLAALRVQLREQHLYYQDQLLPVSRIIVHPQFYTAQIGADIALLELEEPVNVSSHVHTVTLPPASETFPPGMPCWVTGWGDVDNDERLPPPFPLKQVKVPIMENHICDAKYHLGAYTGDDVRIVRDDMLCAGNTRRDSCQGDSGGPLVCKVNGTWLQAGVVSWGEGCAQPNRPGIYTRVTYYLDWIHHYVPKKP
Test: IC50 determination, spectrophotometric protease assay
Assay type: biochemical
Endpoint label: IC50

Worked examples follow.
compound="C#CCCCOC(=O)NC(c1ccc(N)cc1)P(=O)(Oc1ccccc1)Oc1ccccc1 (stereo not drawn) [19b]" experimental_target="β-tryptase (recombinant tryptase β-2) (Homo sapiens)" endpoint_value="> 10 µM"
compound="C#CCCCOC(=O)NC(Cc1ccc(N)cc1)P(=O)(Oc1ccccc1)Oc1ccccc1 (stereo not drawn) [16b]" experimental_target="β-tryptase (recombinant tryptase β-2) (Homo sapiens)" endpoint_value="> 10 µM"

Next, consider the following compound.
Request: # query: IC50 of entry C#CCCCOC(=O)NC(c1ccc(N)cc1)P(=O)(Oc1ccc(Cl)cc1)Oc1ccc(Cl)cc1 (stereo not drawn) [21b]
Response: > 10 µM
